Reported PBM binding z-score by item:
# Test system: PXR homodimer (NR concentration 270 nM)
# ASSAY PROTOCOL: PBM binding z-score (relative to random genomic background probes); higher = stronger binding; sequences stand for … in GC…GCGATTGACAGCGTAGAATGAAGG
PARAMETER MEASURED: PBM binding z-score

primary_sequence=AGAATGAGGTTACCAAAGATCAGGCAAACGCTTG parameter_measured="PBM binding z-score" result=-0.362
primary_sequence=ACAGACAGGTGATGAAGGTAAATCAGGCTATCAT parameter_measured="PBM binding z-score" result=-0.0702
primary_sequence=TCTTGTAGATCAGCAGGTTAAGAGAGCTGGCCAA parameter_measured="PBM binding z-score" result=-0.483
primary_sequence=TCATATAGGTAAAAGGTGAAAGGCGGTGTGGTAA parameter_measured="PBM binding z-score" result=0.582
primary_sequence=GTACCAAGGTGAATAGGTCGTTTATGAGTAGGCG parameter_measured="PBM binding z-score" result=0.0793
primary_sequence=ACTATTAGTTGAGACGAGCGCAACCGATAGGTTG parameter_measured="PBM binding z-score" result=0.00515

* * *

# System: RXRa DBDmut IVT, anti-RXR (DBD mutation: RXRa K156A/R161A, NR concentration 90 nM)
# ASSAY PROTOCOL: PBM binding z-score (relative to random genomic background probes); higher = stronger binding; sequences stand for … in GC…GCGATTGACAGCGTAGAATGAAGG
Reported PBM binding z-score by item:
PARAMETER MEASURED: PBM binding z-score

primary_sequence=CATACAGGGTCAGCTAGGTCAGAGTAGGGACGGC target_system="RXRa DBDmut IVT, anti-RXR (DBD mutation: RXRa K156A/R161A, NR concentration 90 nM)" parameter_measured="PBM binding z-score" quantitative_result=1.93
primary_sequence=GGAACGAGGGCAAAGTTGGTAGCATCTGTCGACG target_system="RXRa DBDmut IVT, anti-RXR (DBD mutation: RXRa K156A/R161A, NR concentration 90 nM)" parameter_measured="PBM binding z-score" quantitative_result=2.47
primary_sequence=ATATGTAGGTGACATCCGGGTCATTCAGGCTATG target_system="RXRa DBDmut IVT, anti-RXR (DBD mutation: RXRa K156A/R161A, NR concentration 90 nM)" parameter_measured="PBM binding z-score" quantitative_result=0.715
primary_sequence=GATACAGGGTCAGCTAGAGGCCAGAATATGGAAA target_system="RXRa DBDmut IVT, anti-RXR (DBD mutation: RXRa K156A/R161A, NR concentration 90 nM)" parameter_measured="PBM binding z-score" quantitative_result=1.32
primary_sequence=AGAATGAGGTTACCGAAGATCAGGGAAACGCTTG target_system="RXRa DBDmut IVT, anti-RXR (DBD mutation: RXRa K156A/R161A, NR concentration 90 nM)" parameter_measured="PBM binding z-score" quantitative_result=1.5
primary_sequence=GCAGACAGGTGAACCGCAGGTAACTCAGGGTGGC target_system="RXRa DBDmut IVT, anti-RXR (DBD mutation: RXRa K156A/R161A, NR concentration 90 nM)" parameter_measured="PBM binding z-score" quantitative_result=-0.635
primary_sequence=TAGCCCAGGTCAGATCGGGCCAGTATACGCTATA target_system="RXRa DBDmut IVT, anti-RXR (DBD mutation: RXRa K156A/R161A, NR concentration 90 nM)" parameter_measured="PBM binding z-score" quantitative_result=-0.536
primary_sequence=CGTCCAAGGTCATAGGAGGTCAGTGCAGACAGAT target_system="RXRa DBDmut IVT, anti-RXR (DBD mutation: RXRa K156A/R161A, NR concentration 90 nM)" parameter_measured="PBM binding z-score" quantitative_result=4
primary_sequence=TCAGATAGGTAAAAGGTGAAAGTCGGTGTGGTAA target_system="RXRa DBDmut IVT, anti-RXR (DBD mutation: RXRa K156A/R161A, NR concentration 90 nM)" parameter_measured="PBM binding z-score" quantitative_result=1.85
primary_sequence=GCTATTAGTTGCAAGGGCAACCGAATGATTCTCG target_system="RXRa DBDmut IVT, anti-RXR (DBD mutation: RXRa K156A/R161A, NR concentration 90 nM)" parameter_measured="PBM binding z-score" quantitative_result=0.914
primary_sequence=TCGAGTAGGTCAGTCGGGGCATTCAGCCAACATA target_system="RXRa DBDmut IVT, anti-RXR (DBD mutation: RXRa K156A/R161A, NR concentration 90 nM)" parameter_measured="PBM binding z-score" quantitative_result=0.903
primary_sequence=TTGAGTAGGTTACCAATGGGGCATTCAGCTTTCT target_system="RXRa DBDmut IVT, anti-RXR (DBD mutation: RXRa K156A/R161A, NR concentration 90 nM)" parameter_measured="PBM binding z-score" quantitative_result=0.192
primary_sequence=CTCGAAACGTCGTGCTCAGGTGAGTATACCAAAC target_system="RXRa DBDmut IVT, anti-RXR (DBD mutation: RXRa K156A/R161A, NR concentration 90 nM)" parameter_measured="PBM binding z-score" quantitative_result=-0.187
primary_sequence=ATCTCTGGGTAAAGTTCAGTGAAAGATCGATAGA target_system="RXRa DBDmut IVT, anti-RXR (DBD mutation: RXRa K156A/R161A, NR concentration 90 nM)" parameter_measured="PBM binding z-score" quantitative_result=1.43
primary_sequence=TCTGCTACGTCAACGATGGTCAGCTAATCTGCTA target_system="RXRa DBDmut IVT, anti-RXR (DBD mutation: RXRa K156A/R161A, NR concentration 90 nM)" parameter_measured="PBM binding z-score" quantitative_result=0.0473
primary_sequence=CAGCCTAGGTCAGGGCCAGTATCGGAGGAACGTT target_system="RXRa DBDmut IVT, anti-RXR (DBD mutation: RXRa K156A/R161A, NR concentration 90 nM)" parameter_measured="PBM binding z-score" quantitative_result=-0.106
primary_sequence=TGTCAAGGTTCAAAGGTAACGTAAGTATCCACAC target_system="RXRa DBDmut IVT, anti-RXR (DBD mutation: RXRa K156A/R161A, NR concentration 90 nM)" parameter_measured="PBM binding z-score" quantitative_result=4.37
primary_sequence=GGAACGAGGGCATTCGAGTTGATAGCCTGGCGAT target_system="RXRa DBDmut IVT, anti-RXR (DBD mutation: RXRa K156A/R161A, NR concentration 90 nM)" parameter_measured="PBM binding z-score" quantitative_result=3.31
primary_sequence=ATCTCTTGGTAAGACTCAGTTCAGTGAAGAACGC target_system="RXRa DBDmut IVT, anti-RXR (DBD mutation: RXRa K156A/R161A, NR concentration 90 nM)" parameter_measured="PBM binding z-score" quantitative_result=0.852
primary_sequence=TAGCCTAGGTCATGCGCGCCAGTATAGTGTCGGC target_system="RXRa DBDmut IVT, anti-RXR (DBD mutation: RXRa K156A/R161A, NR concentration 90 nM)" parameter_measured="PBM binding z-score" quantitative_result=0.635
primary_sequence=TGAATGAGGTTAAAGATCAGGGAACGTGGCGTCG target_system="RXRa DBDmut IVT, anti-RXR (DBD mutation: RXRa K156A/R161A, NR concentration 90 nM)" parameter_measured="PBM binding z-score" quantitative_result=1.61
primary_sequence=CAAACTAGGTCAAGAGGTCAAAGACCGCTTCCCG target_system="RXRa DBDmut IVT, anti-RXR (DBD mutation: RXRa K156A/R161A, NR concentration 90 nM)" parameter_measured="PBM binding z-score" quantitative_result=2.18
primary_sequence=CTCGAAAGGTCGCTTGAGGTGAGTATACGGATAA target_system="RXRa DBDmut IVT, anti-RXR (DBD mutation: RXRa K156A/R161A, NR concentration 90 nM)" parameter_measured="PBM binding z-score" quantitative_result=1.89
primary_sequence=CGAACGAGGGCATGAGTTGATAGCAAATGCCGAT target_system="RXRa DBDmut IVT, anti-RXR (DBD mutation: RXRa K156A/R161A, NR concentration 90 nM)" parameter_measured="PBM binding z-score" quantitative_result=2.58
primary_sequence=ATATGTAGGTTACATCCGGGTCATTCAAGCTATG target_system="RXRa DBDmut IVT, anti-RXR (DBD mutation: RXRa K156A/R161A, NR concentration 90 nM)" parameter_measured="PBM binding z-score" quantitative_result=1.48
primary_sequence=CGTCCAAGGTCAGAGAGGTCGGTGAATGCCGAGT target_system="RXRa DBDmut IVT, anti-RXR (DBD mutation: RXRa K156A/R161A, NR concentration 90 nM)" parameter_measured="PBM binding z-score" quantitative_result=2.7
